Test: in situ brain/choroid plexus perfusion: CNS uptake of [^3H]-arginine, [^3H]-ADMA and [^14C]-sucrose (multiple-time and single-time uptake analysis)
Settings: male, BALB/c, mouse, hippocampus, [3H] ADMA and [14C] Sucrose uptake, 2.5 mins, 5ml/min; individual mouse
Where a name gives a salt, the structure may show the parent alone.
attribute measured: Kp at […], 62.5 nM

# compound CN(C)C(N)=NCCC[C@H](N)C(=O)O [ADMA, N^G,N^G-dimethylarginine dihydrochloride] ; its Kp at […], 62.5 nM = 0.0898

* * *

Assay: in situ brain/choroid plexus perfusion: CNS uptake of [^3H]-arginine, [^3H]-ADMA and [^14C]-sucrose (multiple-time and single-time uptake analysis)
Settings: male, BALB/c, mouse, hypothalamus, [3H] ADMA and [14C] Sucrose uptake, 2.5 mins, 5ml/min; individual mouse
Structures can show the parent of a compound that is named as a salt.
attribute measured: Kp at […]
Give bare numbers.

# compound CN(C)C(N)=NCCC[C@H](N)C(=O)O [ADMA, N^G,N^G-dimethylarginine dihydrochloride] ; its Kp at […] = 0.114

Cited source: paper PMC11501026
